- protocol: soluble fraction after stress (log2 fold change); higher = more stays soluble; pooled small domains, quantitative proteomics;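 also: 20 min heating vs room temperature control held 20 min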
- experimentalConditions: stress: 75 degC
Classification field: enter t for soluble fraction (log2) values not below -0.6, f for values below it.

q: API: above_or_equal(metric=soluble fraction (log2), cutoff=-0.6) for item HMRTITIDDSIAGKRLDEALTLLGAESSRTKVKLLFSSPNGVLVNGEKEKPHYRVEAGDVIQFGELPKK
a: t

q: Could you verify whether the entry HMQLSQLLQPFDINAFKGHPLYTEENVKMFNDYTNRVKEWTKGTPYEQYWVTKEGQPTMLAWDSFKK shows soluble fraction (log2) of no less than -0.6?
a: f

q: Form field: soluble fraction (log2) at least -0.6? Entry: HMKKAENEKLNIPYDVTEFLASSIKDDIRMMEGAMVKLLALSSLTKQDITQSLAKRVIQDVLGSSA
a: t

q: Please check the record HMTSEVLTNATIVKMVKAKLSDDIIIDEINNARVNFDVSPEGIKSLTAQNVTEPVIETMKKAVAAQESI and state if its soluble fraction (log2) is at or above -0.6.
a: t

q: Could you tell me if the measured soluble fraction (log2) of HMAMMTKQRLIQLIHIARNDLQMDEDTYRQMLQGLTGKASTKGMDTPQLNRVLESMKKKGFRIK reaches -0.6 or more?
a: f

q: Check if soluble fraction (log2) >= -0.6 (inclusive). Item: HMLNLNEAEKSIYVLIKKNESNNLNKVKEDSNLSNKAWDKGIKNLVKNNLVKVVKSNEGLFIQLV
a: f

q: Assess whether reported soluble fraction (log2) for HMSSEITYDKFIEMVEEGNVKEVTLQSDTLTIKPKHQDSAFSEKEYYTRQMESADQLTERLEGTGIEFHS sits at -0.6 or higher.
a: t

q: For this sequence, is measured soluble fraction (log2) -0.6 or higher? HMTHEIKIKSHSLFASEGTKYQWYLNNIKINDATSQELEITSPGIYKLEMTNFDGDVIEKQIIVGLTNS
a: f

q: Decide: is the reported value of soluble fraction (log2) for HMETSLVIQIDGAVNSPGIYQVTPGTRIFEALELAGGVREDAQTEALNLALPVYDGQRISIPSSFA equal to or greater than -0.6?
a: t
